- measurement_target: T1, Recombinantly expressed fused calprotectin (His6-linker-S100A9-linker-S100A8), product code B-RCAL, BÜHLMANN … (human, UniProt P06702 1-114; P05109 1-93)
- T1 construct: Bought fusion protein; also called CP; human recombinant calprotectin
- T1 sequence: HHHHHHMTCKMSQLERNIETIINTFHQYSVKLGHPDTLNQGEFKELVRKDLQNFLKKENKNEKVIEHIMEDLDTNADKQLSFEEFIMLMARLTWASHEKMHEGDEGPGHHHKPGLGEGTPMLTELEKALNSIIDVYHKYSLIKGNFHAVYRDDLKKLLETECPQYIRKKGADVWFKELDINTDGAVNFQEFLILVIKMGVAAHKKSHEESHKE
- protocol_text: fluorescence polarization, 20 nM fluorescent peptide, calprotectin titrated
- Procedure: The reaction mixture was incubated at 30° C. for 1 hr, and the completion of the reaction was assessed by LCMS. The reaction was stopped by addition of HCOOH (200 μL) and the cyclized peptide was lyophilized. […] The purity of the peptides was assessed by analysing around 20 μg of peptide by RP-HPLC (1260 HPLC system, Agilent) using a C18 column (ZORBAX 300SB-C18, 5 μm, 300 Å, 4.6×250 mm, Agilent). […] Dissociation constant (Kd) was calculated using the following equation on Prism 5 (GraphPad): […]
experimental_endpoint: Kd

I am curious: what Kd value has been reported for RCPECVAFPMFQCHWYCG (neighboring cysteines cross-linked by chemical linkers (linker not named); N-terminal 5(6)-carboxyfluorescein; synthesised on rink amide AM resin, Both pairs of neighboring cysteines bridged) [Peptide 3 Isomer 1 (RCPECVAFPMFQCHWYCG with cross-linked neighboring cysteines)] ?
~24 nM
